target: cAMP and cAMP-inhibited cGMP 3',5'-cyclic phosphodiesterase 10A (Homo sapiens)
Sequence (Q9Y233 whole entry): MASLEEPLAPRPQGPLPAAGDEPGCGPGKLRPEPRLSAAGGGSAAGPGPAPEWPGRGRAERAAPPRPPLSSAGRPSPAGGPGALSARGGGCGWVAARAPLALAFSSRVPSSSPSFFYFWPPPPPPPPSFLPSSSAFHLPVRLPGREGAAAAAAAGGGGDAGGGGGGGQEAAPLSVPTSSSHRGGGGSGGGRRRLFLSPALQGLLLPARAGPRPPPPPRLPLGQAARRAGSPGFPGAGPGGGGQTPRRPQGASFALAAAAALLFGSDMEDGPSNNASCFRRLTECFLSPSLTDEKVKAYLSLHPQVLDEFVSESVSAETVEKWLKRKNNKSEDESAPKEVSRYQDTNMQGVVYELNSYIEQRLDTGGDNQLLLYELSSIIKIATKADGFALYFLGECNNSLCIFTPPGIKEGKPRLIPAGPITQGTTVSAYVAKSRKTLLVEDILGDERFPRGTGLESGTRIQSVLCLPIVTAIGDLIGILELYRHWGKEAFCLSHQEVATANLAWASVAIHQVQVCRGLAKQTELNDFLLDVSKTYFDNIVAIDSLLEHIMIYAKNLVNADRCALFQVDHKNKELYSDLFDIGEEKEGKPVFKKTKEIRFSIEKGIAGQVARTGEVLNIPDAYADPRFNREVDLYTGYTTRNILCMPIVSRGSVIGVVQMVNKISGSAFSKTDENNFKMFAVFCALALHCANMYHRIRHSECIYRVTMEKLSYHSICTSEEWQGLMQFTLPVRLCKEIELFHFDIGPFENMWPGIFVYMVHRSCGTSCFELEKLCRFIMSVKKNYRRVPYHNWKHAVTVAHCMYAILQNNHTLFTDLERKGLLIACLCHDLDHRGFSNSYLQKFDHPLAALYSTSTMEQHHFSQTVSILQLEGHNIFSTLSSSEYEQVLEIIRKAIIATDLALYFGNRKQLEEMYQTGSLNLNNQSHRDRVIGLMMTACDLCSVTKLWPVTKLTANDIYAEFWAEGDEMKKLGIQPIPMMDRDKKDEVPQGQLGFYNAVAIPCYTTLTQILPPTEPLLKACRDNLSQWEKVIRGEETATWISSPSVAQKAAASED
pIC50: −log10 of the molar value.
# label = Met if pIC50 >= 7 else Not met

INSERT INTO assay_data (record_smiles, group_label) VALUES
  ('CN(C(=O)c1cc(-c2ccccc2)n[nH]1)c1ccc(OCc2ccc3ccccc3n2)cc1', 'Met'),
  ('CN(C(=O)c1ccc(-n2ccnc2)cc1)c1ccc(OCc2ccc3ccccc3n2)cc1', 'Not met'),
  ('CN(C(=O)c1ccc(OCc2ccc3ccccc3n2)cc1)c1ccn2ncnc2c1', 'Not met'),
  ('CN(C(=O)c1cc(-c2ccccn2)n[nH]1)c1ccc(OCc2ccc3ccccc3n2)cc1', 'Met'),
  ('CN(C(=O)c1cc(-c2cccnc2)n[nH]1)c1ccc(OCc2ccc3ccccc3n2)cc1', 'Met');
